System: 415267-285-R-J2-PDC complex spheroid viability
Assay: Anticancer human tumor 415267-285-R-J2-PDC patient-derived breast carcinoma cell line growth inhibition [POLQ]
Conditions: second compound 0.0316 µM; first compound 1 µM; stronger effect = lower value
measure.name: viability, T/C (%)
Answers are plain numbers, in %.

Recorded viability, T/C, per entry:
CC1COCCN1c1cc(C2(S(C)(=N)=O)CC2)nc(-c2ccnc3[nH]ccc23)n1 (stereo unspecified) + Cc1cccc(N(C)C(=O)C2C(O)CCN2c2nc(C)cc(C(F)(F)F)c2C#N)c1    15.8
CNCc1ccc(-c2[nH]c3cc(F)cc4c3c2CCNC4=O)cc1 + Nc1ccc(C#CCN(C(=O)Cc2ncc(C(F)(F)F)cc2C(F)(F)F)c2ccc(F)cc2)nn1    84.6
O=c1[nH]cc(F)c(=O)[nH]1 + Nc1ccc(C#CCN(C(=O)Cc2ncc(C(F)(F)F)cc2C(F)(F)F)c2ccc(F)cc2)nn1    21.4
CC1COCCN1c1cc(C2(O)CC3CCC(C2)O3)c2cnn(-c3ccn[nH]3)c2n1 (stereo unspecified) + Cc1cccc(N(C)C(=O)C2C(O)CCN2c2nc(C)cc(C(F)(F)F)c2C#N)c1    4.79
COc1ccc([C@@H](O)c2cc(-c3ncnc4cc(N5CCOCC5)ccc34)c(F)cc2Cl)nn1 + COC1C(OC(N)=O)C(O)C(Oc2ccc3c(O)c(NC(=O)c4ccc(O)c(CC=C(C)C)c4)c(=O)oc3c2C)OC1(C)C    89

Now, please, on to the next molecule.
Task: Which measured viability, T/C value corresponds to Nc1ccn(C2OC(CO)C(O)C2(F)F)c(=O)n1 (stereo unspecified) + Cc1cccc(N(C)C(=O)C2C(O)CCN2c2nc(C)cc(C(F)(F)F)c2C#N)c1 ?
Output: 4.61

* * *

Test system: 415267-285-R-J2-PDC complex spheroid viability
Experiment: Anticancer human tumor 415267-285-R-J2-PDC cell line growth inhibition [POLQ];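 note: spheroids exposed to compounds for one week before readout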;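 for viability, T/C: luminescence used as stand-in measure of viable cells; 100% = DMSO vehicle control viability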
Details: second compound 0.0316 µM; first compound 0.01 µM; stronger effect = lower value
measure.name: viability, T/C

Recorded viability, T/C, per entry:
CC[C@@]1(O)C(=O)OCc2c1cc1n(c2=O)Cc2cc3c(CN(C)C)c(O)ccc3nc2-1 + Cc1cccc(N(C)C(=O)C2C(O)CCN2c2nc(C)cc(C(F)(F)F)c2C#N)c1    90.9%
CCc1c2c(nc3ccc(O)cc13)-c1cc3c(c(=O)n1C2)COC(=O)[C@]3(O)CC + COC1C(OC(N)=O)C(O)C(Oc2ccc3c(O)c(NC(=O)c4ccc(O)c(CC=C(C)C)c4)c(=O)oc3c2C)OC1(C)C    10%

Now, please, on to the next molecule.
Task: Request body: readout viability, T/C, system 415267-285-R-J2-PDC complex spheroid viability, query CCc1c2c(nc3ccc(O)cc13)-c1cc3c(c(=O)n1C2)COC(=O)[C@]3(O)CC + Cc1cccc(N(C)C(=O)C2C(O)CCN2c2nc(C)cc(C(F)(F)F)c2C#N)c1 . Return the value.
Output: 11.3%

* * *

System: 415267-285-R-J2-PDC complex spheroid viability
Assay: Anticancer human tumor 415267-285-R-J2-PDC cell line growth inhibition [POLQ];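 note: spheroids exposed to compounds for one week before readout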
Conditions: curve of first compound; second compound 0.0316 µM
pIC50: −log10 of the molar value.
Exercise: for every item that follows, state its recorded pIC50.

Need pIC50 for each of these compounds.
1. COc1cc2cc(C(=O)CCC(=O)O)sc2cc1OC + COC1C(OC(N)=O)C(O)C(Oc2ccc3c(O)c(NC(=O)c4ccc(O)c(CC=C(C)C)c4)c(=O)oc3c2C)OC1(C)C
2. COc1ccc([C@@H](O)c2cc(-c3ncnc4cc(N5CCOCC5)ccc34)c(F)cc2Cl)nn1 + COC1C(OC(N)=O)C(O)C(Oc2ccc3c(O)c(NC(=O)c4ccc(O)c(CC=C(C)C)c4)c(=O)oc3c2C)OC1(C)C
3. O=C(c1cc(Cc2n[nH]c(=O)c3ccccc23)ccc1F)N1CCN(C(=O)C2CC2)CC1 + Nc1ccc(C#CCN(C(=O)Cc2ncc(C(F)(F)F)cc2C(F)(F)F)c2ccc(F)cc2)nn1
4. CCc1cc2c(N3CCc4c(cc(Cn5ccnc5)cc4-c4cn(C)nc4C(F)(F)F)C3=O)ccnc2c(OC)n1 + Cc1cccc(N(C)C(=O)C2C(O)CCN2c2nc(C)cc(C(F)(F)F)c2C#N)c1
5. Cn1ncnc1[C@H]1c2n[nH]c(=O)c3cc(F)cc(c23)N[C@@H]1c1ccc(F)cc1 + Nc1ccc(C#CCN(C(=O)Cc2ncc(C(F)(F)F)cc2C(F)(F)F)c2ccc(F)cc2)nn1
6. C=CC(=O)N1CCN(c2nc(=O)n(-c3c(C)ccnc3C(C)C)c3nc(-c4c(O)cccc4F)c(F)cc23)C(C)C1 (stereo not drawn) + Cc1cccc(N(C)C(=O)C2C(O)CCN2c2nc(C)cc(C(F)(F)F)c2C#N)c1
7. CNCc1ccc(-c2[nH]c3cc(F)cc4c3c2CCNC4=O)cc1 + Nc1ccc(C#CCN(C(=O)Cc2ncc(C(F)(F)F)cc2C(F)(F)F)c2ccc(F)cc2)nn1

Output:
["< 5.00", 5.06, "< 5.00", "< 5.00", "< 7.00", "< 5.00", "< 5.00"]

* * *

Tested on: 415267-285-R-J2-PDC complex spheroid viability
Assay: Anticancer human tumor 415267-285-R-J2-PDC cell line growth inhibition [POLQ];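 note: spheroids exposed to compounds for one week before readout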;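 for viability, T/C: luminescence used as stand-in measure of viable cells; 100% = DMSO vehicle control viability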
Details: second compound 0.316 µM; first compound 1 µM; stronger effect = lower value
Exercise: for every item that follows, state its recorded viability, T/C.
Numbers only, in %.

Recorded viability, T/C, per entry:
CCCS(=O)(=O)Nc1ccc(F)c(C(=O)c2c[nH]c3ncc(-c4ccc(Cl)cc4)cc23)c1F + Nc1ccc(C#CCN(C(=O)Cc2ncc(C(F)(F)F)cc2C(F)(F)F)c2ccc(F)cc2)nn1    95.2
CC1COCCN1c1cc(-c2ccnn2C)c2ccnc(-c3ccn[nH]3)c2n1 (stereo not drawn) + Nc1ccc(C#CCN(C(=O)Cc2ncc(C(F)(F)F)cc2C(F)(F)F)c2ccc(F)cc2)nn1    3.99

Task: Request body: readout viability, T/C, system 415267-285-R-J2-PDC complex spheroid viability, query COc1cc(C2c3cc4c(cc3C(OC3OC5COC(C)OC5C(O)C3O)C3COC(=O)C23)OCO4)cc(OC)c1O (stereo not drawn) + COC1C(OC(N)=O)C(O)C(Oc2ccc3c(O)c(NC(=O)c4ccc(O)c(CC=C(C)C)c4)c(=O)oc3c2C)OC1(C)C . Return the value.
Output: 8.42

* * *

Test system: 415267-285-R-J2-PDC complex spheroid viability
Assay: Anticancer human tumor 415267-285-R-J2-PDC cell line growth inhibition [POLQ];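 note: spheroids exposed to compounds for one week before readout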
Details: curve of first compound; second compound 0.0316 µM
measure.name: pIC50
Give bare numbers, as −log10 of the molar value.

Recorded pIC50, per entry:
COc1cc(C2c3cc4c(cc3C(OC3OC5COC(C)OC5C(O)C3O)C3COC(=O)C23)OCO4)cc(OC)c1O (stereo not given) + Nc1ccc(C#CCN(C(=O)Cc2ncc(C(F)(F)F)cc2C(F)(F)F)c2ccc(F)cc2)nn1    6.71
O=c1[nH]cc(F)c(=O)[nH]1 + Cc1cccc(N(C)C(=O)C2C(O)CCN2c2nc(C)cc(C(F)(F)F)c2C#N)c1    6.65

Task: Which measured pIC50 value corresponds to COc1cc(C2c3cc4c(cc3C(OC3OC5COC(C)OC5C(O)C3O)C3COC(=O)C23)OCO4)cc(OC)c1O (stereo not given) + COC1C(OC(N)=O)C(O)C(Oc2ccc3c(O)c(NC(=O)c4ccc(O)c(CC=C(C)C)c4)c(=O)oc3c2C)OC1(C)C ?
Output: 6.81

* * *

Test system: 415267-285-R-J2-PDC complex spheroid viability
Experiment: Anticancer human tumor 415267-285-R-J2-PDC cell line growth inhibition [POLQ]; active means viability on the fitted dose curve at most 10% of control; inactive means the rest;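 note: spheroids exposed to compounds for one week before readout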
Details: second compound 0.0316 µM; first compound 3.16 µM
Select the matching outcome among active, inactive

Completed entries (count: 4):
COc1cc(C2c3cc4c(cc3C(OC3OC5COC(C)OC5C(O)C3O)C3COC(=O)C23)OCO4)cc(OC)c1O (stereo not given) + Cc1cccc(N(C)C(=O)C2C(O)CCN2c2nc(C)cc(C(F)(F)F)c2C#N)c1    active
O=C(c1cc(Cc2n[nH]c(=O)c3ccccc23)ccc1F)N1CCN(C(=O)C2CC2)CC1 + Cc1cccc(N(C)C(=O)C2C(O)CCN2c2nc(C)cc(C(F)(F)F)c2C#N)c1    inactive
CC1COCCN1c1cc(C2(S(C)(=N)=O)CC2)nc(-c2ccnc3[nH]ccc23)n1 (stereo not given) + Nc1ccc(C#CCN(C(=O)Cc2ncc(C(F)(F)F)cc2C(F)(F)F)c2ccc(F)cc2)nn1    active
CCc1cc2c(N3CCc4c(cc(Cn5ccnc5)cc4-c4cn(C)nc4C(F)(F)F)C3=O)ccnc2c(OC)n1 + Nc1ccc(C#CCN(C(=O)Cc2ncc(C(F)(F)F)cc2C(F)(F)F)c2ccc(F)cc2)nn1    inactive

Now turn to the next compound.
Task: Could you please tell me the result logged for CC1COCCN1c1cc(C2(O)CC3CCC(C2)O3)c2cnn(-c3ccn[nH]3)c2n1 (stereo not given) + Cc1cccc(N(C)C(=O)C2C(O)CCN2c2nc(C)cc(C(F)(F)F)c2C#N)c1 in this assay?
Output: active
